biological target: Leishmania donovani Topoisomerase 1 (LdTop1) (Leishmania donovani, UniProt A0A3Q8IHS4+Q8WQM6); assay: Plasmid DNA relaxation assay, LdTop1 (simultaneous incubation); format: biochemical; details: LdTop1 relaxation, 100 uM; read-out: % inhibition, mean data
Sequence (Q8WQM6 entry or part of it): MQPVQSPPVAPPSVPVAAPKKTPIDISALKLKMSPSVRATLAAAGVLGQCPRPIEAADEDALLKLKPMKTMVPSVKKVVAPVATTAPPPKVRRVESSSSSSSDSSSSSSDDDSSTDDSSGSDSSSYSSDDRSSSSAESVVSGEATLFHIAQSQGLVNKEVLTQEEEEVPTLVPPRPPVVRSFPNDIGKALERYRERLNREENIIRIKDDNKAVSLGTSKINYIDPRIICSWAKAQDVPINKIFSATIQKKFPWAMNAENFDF
Sequence (A0A3Q8IHS4 entry or part of it): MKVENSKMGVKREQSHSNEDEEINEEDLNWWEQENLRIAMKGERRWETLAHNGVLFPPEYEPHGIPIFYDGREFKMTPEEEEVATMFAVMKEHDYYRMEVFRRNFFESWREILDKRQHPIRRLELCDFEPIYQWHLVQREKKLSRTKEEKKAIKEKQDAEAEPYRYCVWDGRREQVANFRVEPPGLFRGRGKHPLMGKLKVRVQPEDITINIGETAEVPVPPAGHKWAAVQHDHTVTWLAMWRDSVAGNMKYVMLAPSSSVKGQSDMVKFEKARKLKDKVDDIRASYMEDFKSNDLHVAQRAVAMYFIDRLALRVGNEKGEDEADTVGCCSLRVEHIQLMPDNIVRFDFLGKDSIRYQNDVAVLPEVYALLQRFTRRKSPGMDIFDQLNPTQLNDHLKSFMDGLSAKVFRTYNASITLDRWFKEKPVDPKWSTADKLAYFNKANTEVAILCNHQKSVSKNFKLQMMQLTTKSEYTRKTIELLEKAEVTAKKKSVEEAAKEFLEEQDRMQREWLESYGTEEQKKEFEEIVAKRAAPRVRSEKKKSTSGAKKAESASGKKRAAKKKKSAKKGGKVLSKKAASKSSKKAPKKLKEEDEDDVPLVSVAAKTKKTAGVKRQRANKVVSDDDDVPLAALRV
Label no if inhibition at 100 µM falls below 90%; label yes in every other case.

Prompt: Does the molecule COc1ccc(/C=C2\OC(=O)c3c2cc(C)[nH]c3=O)c(C)c1C [Compound 2] have recorded inhibition at 100 µM that is 90% or more?
Response: yes

Prompt: Does the molecule Cc1cc2c(c(=O)[nH]1)C(=O)O/C2=C\c1cccc(Br)c1 [Compound 9] have recorded inhibition at 100 µM that is 90% or more?
Response: yes

Prompt: Does the molecule Cc1cc2c(c(=O)[nH]1)C(=O)O/C2=C\c1ccc(O)c(O)c1 [Compound 4] have recorded inhibition at 100 µM that is 90% or more?
Response: yes

Prompt: Does the molecule Cc1cc2c(c(=O)[nH]1)C(=O)O/C2=C\c1cccc(Cl)c1 [Compound 14] have recorded inhibition at 100 µM that is 90% or more?
Response: no

====

Target: Leishmania donovani Topoisomerase 1 (LdTop1) (Leishmania donovani, UniProt A0A3Q8IHS4+Q8WQM6)
Assay: Plasmid DNA relaxation assay, LdTop1 (simultaneous incubation)
Format: biochemical
Conditions: supplement sheet Ld Top 1 data; concentrations in uM; read-out: EC50 (LdTop1, supplement sheet)
Experimental: To investigate the inhibitory effect of our library compounds on the DNA relaxation activity of the recombinant Human and Leishmania topoisomerase 1 (Table 2), assays were performed involving supercoiled plasmid DNA, the enzymes (HTop1 and LdTop1) and our molecules. The enzymes were purified by the standard literature procedure. All the experiments were conducted thrice and representative data from once set of them are expressed as mean ± SD. […]
The reader will find reported EC50 values listed item by item below.
Value expressed in µM; do not type the unit.

Worked cases, answers included:
molecule | unitName | EC50
Cc1cc2c(c(=O)[nH]1)C(=O)O/C2=C\c1cccc(Br)c1 [Compound 9] | µM | 7.51
Cc1cc2c(c(=O)[nH]1)C(=O)O/C2=C\c1ccccc1C(F)(F)F [Compound 3] | µM | 9.06
Cc1cc2c(c(=O)[nH]1)C(=O)O/C2=C\c1cccc(Cl)c1 [Compound 14] | µM | 35.6
COc1ccc(/C=C2\OC(=O)c3c2cc(C)[nH]c3=O)c(C)c1C [Compound 2] | µM | 10.2

Prompt: Consider the molecule Cc1cc2c(c(=O)[nH]1)C(=O)O/C2=C\c1cccc(I)c1 [Compound 15] and give its recorded EC50.
Response: 17.4

====

target: Leishmania donovani Topoisomerase 1 (LdTop1) (Leishmania donovani, UniProt A0A3Q8IHS4+Q8WQM6); experiment: Plasmid DNA relaxation assay, LdTop1 (simultaneous incubation); format: biochemical; conditions: read-out: % inhibition (CPT 100%), data 1, LdTop1 relaxation, 50 uM
quantityKind: inhibition at 50 µM (%)
Value expressed in %; do not type the unit.

Worked cases, answers included:
structureString | inhibition at 50 µM / %
Cc1cc2c(c(=O)[nH]1)C(=O)O/C2=C\c1cccc(Cl)c1 | 58.6
Cc1cc2c(c(=O)[nH]1)C(=O)O/C2=C\c1ccccc1C(F)(F)F | 88.7
Cc1cc2c(c(=O)[nH]1)C(=O)O/C2=C\c1ccc(O)c(O)c1 | 100
Cc1cc2c(c(=O)[nH]1)C(=O)O/C2=C\c1cccc(Br)c1 | 89.7
Cc1cc2c(c(=O)[nH]1)C(=O)O/C2=C\c1cccc(I)c1 | 76.2

Then this molecule:
Prompt: Consider the molecule `COc1ccc(/C=C2\OC(=O)c3c2cc(C)[nH]c3=O)c(C)c1C` and give its recorded inhibition at 50 µM.
Response: 85.8

====

Target: Leishmania donovani Topoisomerase 1 (LdTop1) (Leishmania donovani, UniProt A0A3Q8IHS4+Q8WQM6)
Experiment: Plasmid DNA relaxation assay, LdTop1 (simultaneous incubation)
Assay type: biochemical
Details: LdTop1 relaxation, 12.5 uM; read-out: % inhibition, mean data
Description: To investigate the inhibitory effect of our library compounds on the DNA relaxation activity of the recombinant Human and Leishmania topoisomerase 1 (Table 2), assays were performed involving supercoiled plasmid DNA, the enzymes (HTop1 and LdTop1) and our molecules. The enzymes were purified by the standard literature procedure. All the experiments were conducted thrice and representative data from once set of them are expressed as mean ± SD. […]
The reader will find reported inhibition at 12.5 µM values listed item by item below.
Value expressed in %; do not type the unit.

Worked cases, answers included:
structureString | unitName | numericValue
Cc1cc2c(c(=O)[nH]1)C(=O)O/C2=C\c1ccccc1C(F)(F)F | % | 52.5
Cc1cc2c(c(=O)[nH]1)C(=O)O/C2=C\c1cccc(I)c1 | % | 42.1
COc1ccc(/C=C2\OC(=O)c3c2cc(C)[nH]c3=O)c(C)c1C | % | 50.1
Cc1cc2c(c(=O)[nH]1)C(=O)O/C2=C\c1cccc(Cl)c1 | % | 30.6
Cc1cc2c(c(=O)[nH]1)C(=O)O/C2=C\c1ccc(O)c(O)c1 | % | 97.2

Then this compound:
Prompt: Consider the compound `Cc1cc2c(c(=O)[nH]1)C(=O)O/C2=C\c1cccc(Br)c1` and give its recorded inhibition at 12.5 µM.
Response: 52.2

====

test: Cytotoxicity on mammalian COS7 cell lines; type: cell-based; conditions: African green monkey, COS7 cells
quantityKind: CC50 (µM)
Value expressed in µM; do not type the unit.

Prompt: Consider the molecule Cc1cc2c(c(=O)[nH]1)C(=O)O/C2=C\c1ccc(O)c(O)c1 [Compound 4] and give its recorded CC50.
Response: 391

====

molecular target: LdTop1 (Leishmania donovani, UniProt A0A3Q8IHS4+Q8WQM6); test: Preincubation DNA relaxation inhibition assay, LdTop1; type: biochemical; conditions: preincubated with LdTop1 5 min 37 °C before DNA; read-out: EC50, preincubation assay
Sequence (Q8WQM6 entry or part of it): as the sequence (Q8WQM6 entry or part of it) above
Sequence (A0A3Q8IHS4 entry or part of it): as the sequence (A0A3Q8IHS4 entry or part of it) above
quantityKind: pEC50
pEC50 here is simply -log10 of the concentration when that concentration is written in mol/L.

Prompt: Consider the compound Cc1cc2c(c(=O)[nH]1)C(=O)O/C2=C\c1ccc(O)c(O)c1 [Compound 4] and give its recorded pEC50.
Response: 5.76

====

biological target: Leishmania donovani Topoisomerase 1 (LdTop1) (Leishmania donovani, UniProt A0A3Q8IHS4+Q8WQM6); assay: Plasmid DNA relaxation assay, LdTop1 (simultaneous incubation); format: biochemical; settings: read-out: % inhibition (CPT 100%), data 2, LdTop1 relaxation, 50 uM
quantityKind: inhibition at 50 µM (%)
Value expressed in %; do not type the unit.

Worked cases, answers included:
molecule | inhibition at 50 µM (%)
Cc1cc2c(c(=O)[nH]1)C(=O)O/C2=C\c1ccc(O)c(O)c1 [Compound 4] | 100
Cc1cc2c(c(=O)[nH]1)C(=O)O/C2=C\c1cccc(Br)c1 [Compound 9] | 87.2
Cc1cc2c(c(=O)[nH]1)C(=O)O/C2=C\c1cccc(Cl)c1 [Compound 14] | 64.3
COc1ccc(/C=C2\OC(=O)c3c2cc(C)[nH]c3=O)c(C)c1C [Compound 2] | 84.4
Cc1cc2c(c(=O)[nH]1)C(=O)O/C2=C\c1cccc(I)c1 [Compound 15] | 74.3

Then this molecule:
Prompt: Consider the molecule Cc1cc2c(c(=O)[nH]1)C(=O)O/C2=C\c1ccccc1C(F)(F)F [Compound 3] and give its recorded inhibition at 50 µM.
Response: 86.2

====

target: Leishmania donovani Topoisomerase 1 (LdTop1) (Leishmania donovani, UniProt A0A3Q8IHS4+Q8WQM6); assay: Plasmid DNA relaxation assay, LdTop1 (simultaneous incubation); assay type: biochemical; settings: read-out: % inhibition (CPT 100%), data 1, LdTop1 relaxation, 100 uM
quantityKind: inhibition at 100 µM (%)
Value expressed in %; do not type the unit.

Worked cases, answers included:
structureString | inhibition at 100 µM [%]
Cc1cc2c(c(=O)[nH]1)C(=O)O/C2=C\c1cccc(I)c1 | 93
Cc1cc2c(c(=O)[nH]1)C(=O)O/C2=C\c1ccc(O)c(O)c1 | 100

Prompt: Consider the compound `COc1ccc(/C=C2\OC(=O)c3c2cc(C)[nH]c3=O)c(C)c1C` and give its recorded inhibition at 100 µM.
Response: 100

Prompt: Consider the compound `Cc1cc2c(c(=O)[nH]1)C(=O)O/C2=C\c1cccc(Br)c1` and give its recorded inhibition at 100 µM.
Response: 95.5

Prompt: Consider the compound `Cc1cc2c(c(=O)[nH]1)C(=O)O/C2=C\c1ccccc1C(F)(F)F` and give its recorded inhibition at 100 µM.
Response: 93.7

Prompt: Consider the compound `Cc1cc2c(c(=O)[nH]1)C(=O)O/C2=C\c1cccc(Cl)c1` and give its recorded inhibition at 100 µM.
Response: 88.2

====

The reader will find reported EC50 values listed item by item below.
target: Leishmania donovani Topoisomerase 1 (LdTop1) (Leishmania donovani, UniProt A0A3Q8IHS4+Q8WQM6); assay: Plasmid DNA relaxation assay, LdTop1 (simultaneous incubation); assay type: biochemical; conditions: plasmid DNA relaxation; averages of three experiments; read-out: LDTop1 inhibition (EC50)

structureString | result
Cc1cc2c(c(=O)[nH]1)C(=O)O/C2=C\c1ccc(Cl)cc1 | > 100 µM

Prompt: Consider the compound `Cc1cc2c(c(=O)[nH]1)C(=O)O/C2=C\c1ccc2c(c1)OCO2` and give its recorded EC50.
Response: > 100 µM

Prompt: Consider the compound `Cc1cc2c(c(=O)[nH]1)C(=O)O/C2=C\c1ccc(Br)cc1` and give its recorded EC50.
Response: > 100 µM

Prompt: Consider the compound `Cc1cc2c(c(=O)[nH]1)C(=O)O/C2=C\c1ccccc1Cl` and give its recorded EC50.
Response: > 100 µM
